Taken from paper PMC10709440.

Biological target: Drosophila OR98a (Drosophila melanogaster, UniProt Q9VAZ3)
Construct: expressed in transfected cells
Sequence (Q9VAZ3 whole entry): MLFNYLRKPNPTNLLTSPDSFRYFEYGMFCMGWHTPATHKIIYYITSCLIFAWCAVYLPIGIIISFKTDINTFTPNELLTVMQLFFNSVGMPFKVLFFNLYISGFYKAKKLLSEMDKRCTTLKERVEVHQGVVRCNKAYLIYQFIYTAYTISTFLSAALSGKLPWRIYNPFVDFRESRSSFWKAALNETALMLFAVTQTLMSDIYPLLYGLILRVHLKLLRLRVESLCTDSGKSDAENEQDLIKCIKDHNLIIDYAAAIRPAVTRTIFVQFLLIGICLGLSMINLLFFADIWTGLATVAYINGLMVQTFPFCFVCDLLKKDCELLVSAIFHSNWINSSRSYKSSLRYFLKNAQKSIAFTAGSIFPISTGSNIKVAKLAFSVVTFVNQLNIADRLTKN
Sequence (Q9VNB5 whole entry partner): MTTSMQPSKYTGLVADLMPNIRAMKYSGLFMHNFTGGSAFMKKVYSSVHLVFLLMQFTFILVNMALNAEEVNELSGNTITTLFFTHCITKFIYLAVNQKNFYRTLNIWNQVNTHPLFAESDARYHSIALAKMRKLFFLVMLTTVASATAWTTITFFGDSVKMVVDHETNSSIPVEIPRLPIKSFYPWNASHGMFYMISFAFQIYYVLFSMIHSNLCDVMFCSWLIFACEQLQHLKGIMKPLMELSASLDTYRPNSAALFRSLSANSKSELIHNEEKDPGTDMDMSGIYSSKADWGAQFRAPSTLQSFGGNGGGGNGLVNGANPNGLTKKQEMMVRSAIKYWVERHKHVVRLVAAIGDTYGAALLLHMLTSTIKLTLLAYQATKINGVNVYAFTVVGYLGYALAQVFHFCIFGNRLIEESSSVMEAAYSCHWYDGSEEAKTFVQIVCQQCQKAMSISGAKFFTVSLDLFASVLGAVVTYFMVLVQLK
Test: cell-based
Set-up: GCaMP6 calcium fluorescence in stable HEK293 OR+ORCO lines; peak dF normalised to 50 uM VUAA1 (=1)
Settings: HEK293; relative to 50 uM VUAA1 response; below 0.05 set to 0; read-out: % activation
Quantity Name: activity at 10 µM (%)
Answer in %, number only, no unit symbol.

Fill in activity at 10 µM for record C=C(C)[C@H]1CC=C(C)CC1 [(R)-(+)-limonene] 0

Fill in activity at 10 µM for record C=C1CC[C@@]23C[C@@H]1C(C)(C)[C@@H]2CC[C@H]3C [(+)-beta-cedrene] 5.99

Fill in activity at 10 µM for record C=C1[C@H]2CC[C@@H]3[C@H]2C(C)(C)CCC[C@]13C [(+)-longifolene] 12.6

Fill in activity at 10 µM for record C=C(C)C1CCC2(C)OC2C1 (single isomer, unassigned; (+)) [(+)-limonene oxide] 0
